// reported IRF reporter per item
- Tested on: RAW-Dual (murine macrophage reporter line)
- protocol: IRF reporter (Lucia luciferase) activity fold change vs agonist alone; higher = enhanced IRF activity
- condition: modulator concentration 10 µM; agonist: 3'3'-cGAMP 10 ug/mL
Reply with the value as a number alone.

COc1ccc(Cc2nnc(C3CCN(S(C)(=O)=O)CC3)s2)cc1
1.06
O=C(NCC#CCOc1cccc(C(F)(F)F)c1)Nc1c(F)cccc1F
0.994
CC(=NNC(=O)CSc1nc2ccccc2n1Cc1ccccc1)c1ccc(Cl)cc1
0.979
CC1(C)CC(NC(=O)c2cccnc2-c2nc3ccccc3s2)CC(C)(C)N1
0.892
CCc1cc(=O)oc2c(C)c(OCC(=O)c3ccc(OC)cc3)ccc12
0.925
COS(=O)(=O)[O-].C[N+]1(C)CCC(=C(c2ccccc2)c2ccccc2)CC1
0.849
CCOc1ccccc1OCCCCOc1cccc(C)c1C
1
COc1ccccc1OCC(O)COC(N)=O (stereo unspecified)
0.93

QUERY: Please indicate recorded IRF reporter of CC1(C)OC(=O)NC1=O [Prestw-829] measured with RAW-Dual (murine macrophage reporter line).
RESULT: 0.93

QUERY: Please indicate recorded IRF reporter of CCn1c2ccccc2c2cc(CNCCc3ccc(OC)cc3)ccc21 measured with RAW-Dual (murine macrophage reporter line).
RESULT: 0.479

QUERY: Please indicate recorded IRF reporter of CCOc1ccc(CC(=O)N2C3C=CCC2CC3)cc1 (stereo unspecified) measured with RAW-Dual (murine macrophage reporter line).
RESULT: 1.02

###

- Tested on: RAW-Dual (murine macrophage reporter line)
- protocol: IRF reporter (Lucia luciferase) activity fold change vs agonist alone; higher = enhanced IRF activity
- condition: modulator concentration 10 µM; agonist: MPLA […]
// reported IRF reporter per item
Reply with the value as a number alone.

Record excerpt, results attached:
CCN(CC)CC(=O)Nc1c(C)cccc1C.Cl
0.865
CCN1C(=O)CC(NCCc2ccc(S(N)(=O)=O)cc2)C1=O (stereo unspecified)
1.22

QUERY: Specify reported IRF reporter for the compound shown: NC(C(=O)O)c1ccccc1F (stereo unspecified)
RESULT: 0.81

QUERY: Specify reported IRF reporter for the compound shown: CCC1=C(C)CN(C(=O)NCCc2ccc(S(=O)(=O)NC(=O)N[C@H]3CC[C@H](C)CC3)cc2)C1=O
RESULT: 0.915

QUERY: Specify reported IRF reporter for the compound shown: Clc1cccc(C=Nc2ccc(N=Cc3cccc(Cl)c3Cl)cc2)c1Cl
RESULT: 1.09

QUERY: Specify reported IRF reporter for the compound shown: N=C(N)Nc1nc(CSCCC(=N)NS(N)(=O)=O)cs1
RESULT: 1.02

QUERY: Specify reported IRF reporter for the compound shown: COC1(C)CCC2OC2(C)CCC2C1CC2(C)C (stereo unspecified)
RESULT: 1.17

QUERY: Specify reported IRF reporter for the compound shown: C=C1CCC(NS(=O)(=O)c2ccc(-c3coc(C)n3)cc2)CC1
RESULT: 1.2

QUERY: Specify reported IRF reporter for the compound shown: COc1ccc(N2CCN(C(=O)Cc3csc(NC(=O)Nc4ccccc4OC)n3)CC2)cc1
RESULT: 0.48

QUERY: Specify reported IRF reporter for the compound shown: c1ccc2sc(SCCCCSc3nc4ccccc4s3)nc2c1
RESULT: 0.977

QUERY: Specify reported IRF reporter for the compound shown: COc1ccc(C(O)CN2CCN(c3cccc(C)c3C)CC2)cc1OC (stereo unspecified)
RESULT: 1.04
